The reported numbers originate from patent US20060263802A1.

# Test system: human monoclonal antibody CRJB
# Assay type: binding
Classification scheme (Binding of CRJB (10 μg/ml) to looped/cyclic peptide (PEPSCAN-ELISA)): range A = under 80, range B = from 80 up to 100, range C = 100 and over

1) RLMDGTWVAMQTSNE
range B
2) QTSNETKWCPPDQLV
range A
3) IPLVHPLADPSTVFK
range C
4) KGCLRVGGRCHPHVN
range B
5) LESSVIPLVHPLADP
range C
6) WCPPDQLVNLHDFRS
range C
7) TIFNKTLMEADAHYK
range B
8) FNKTLMEADAHYKSV
range C
9) SLLQQHMELLESSVI
range B
10) VAMQTSNETKWCPPD
range A
11) GFGKAYTIFNKTLME
range B
12) KLCGVLGLRLMDGTW
range A
13) LKLCGVLGLRLMDGT
range A
14) ESIMTTKSVSFRRLS
range B
15) LPSKGCLRVGGRCHP
range B
16) KLVPGFGKAYTIFNK
range A
17) LLESSVIPLVHPLAD
range A
18) VGGRCHPHVNGVFFN
range A
19) GKRASKGSETCGFVD
range A
20) DGNVLIPEMQSSLLQ
range C
21) NEILPSKGCLRVGGR
range C
22) LDALESIMTTKSVSF
range C
23) KAYTIFNKTLMEADA
range B
24) IILGPDGNVLIPEMQ
range B
25) LKGACKLKLCGVLGL
range A
26) TSNETKWCPPDQLVN
range A
27) GIILGPDGNVLIPEM
range B
28) LSHLRKLVPGFGKAY
range C
29) HMELLESSVIPLVHP
range C
30) TLMEADAHYKSVRTW
range B
31) VLGLRLMDGTWVAMQ
range C
32) PHVNGVFFNGIILGP
range C
33) CKLKLCGVLGLRLMD
range A
